test system: BDF1 mice, P388 leukemia ip, median survival T/C; assay: NCI In Vivo Anticancer Drug Screen. Data for tumor model P388 Leukemia (intraperitoneal) in B6D2F1 (BDF1) mice; settings: endpoint: median survival time; dose: 1.0 mg/kg/injection; schedule: Q01DX009 (ip); vehicle: saline
Toxic doses and inconclusive results are not listed. How the source made its calls: active means survival T/C of 150% or more; inactive means T/C below 125% in these data.
Possible outcomes: 1 = active, 0 = inactive

CCCC(=O)NC1=C(N2CC2)C(=O)C(NC(=O)CCC)=C(N2CC2)C1=O | 1
[CH3][Hg][Cl] | 0
CNC[C@@H](O)c1ccc(O)c(O)c1 | 0
C[CH2][Ge]1([CH2]C)[CH2]CC2(CCN(CCCN(C)C)C2)C[CH2]1 | 0
CCCCCCCCCCCCCCCCCC[N+](C)(C)C (tested in a mixture with another compound) | 0
COC(=O)[C@@H]1c2cc3c(c(O)c2[C@@H](OC2OC(C)C(OC)C(C)(OC)C2OC)C[C@]1(C)O)C(=O)c1c(O)cc2c(c1C3=O)O[C@H]1O[C@]2(C)[C@H](O)[C@@H](N(C)C)[C@@H]1O (stereo partly specified) | 0

* * *

tested on: BDF1 mice, P388 leukemia ip, median survival T/C; assay: NCI In Vivo Anticancer Drug Screen. Data for tumor model P388 Leukemia (intraperitoneal) in B6D2F1 (BDF1) mice; conditions: endpoint: median survival time; dose: 200.0 mg/kg/injection; schedule: Q01DX001 (ip); vehicle: saline sonified; higher = longer survival
Inconclusive results and toxic doses are left out.
Below: a set of entries, each annotated with reported T/C.
endpoint.label: T/C

Cc1ccc2oc3ccccc3c(=O)c2c1 | 95 % of control
CCCCCCCCCC(=O)NN | 104 % of control
O=C(Nc1ccc2ccccc2c1)c1ccccc1 | 100 % of control
NNC(=O)c1ccc(Cl)c(Cl)c1 | 100 % of control
O=C(NOCc1cc2c(cc1Cl)OCO2)c1ccc(S(=O)(=O)F)cc1 | 86 % of control
Cc1ccccc1C(O)c1ccccc1Cl (stereo unspecified) | 100 % of control

* * *

test system: BDF1 mice, P388 leukemia ip, median survival T/C; test: NCI In Vivo Anticancer Drug Screen. Data for tumor model P388 Leukemia (intraperitoneal) in B6D2F1 (BDF1) mice; conditions: endpoint: median survival time; dose: 200.0 mg/kg/injection; schedule: Q01DX009 (ip); vehicle: Klucel (hydroxypropylcellulose) (HPC)
Toxic doses and inconclusive results are not listed. How the source made its calls: active means survival T/C of 150% or more; inactive means T/C below 125% in these data.
Possible outcomes: active, inactive

CCOC(=O)C(C)NC(=O)N(C)C12CC3CC(CC(C3)C1)C2 (centres undefined) | inactive
BrCCN(CCBr)c1cccc(/C=C/c2ccccc2)c1 | inactive
CC1=NNC(=O)C1CCO (centres undefined) | inactive
COC(=O)c1c(O)cc(OC)cc1OC | inactive
CN(C)c1ccc2c(Cl)cc(Cl)nc2c1 | inactive
COc1ccccc1NC(=O)c1ccc(Cl)cc1 | inactive
COc1cc([N+](=O)[O-])c(/C=C2/c3cc(OC)c(OC)cc3CCN2C)cc1Br | inactive
CC(=O)Nc1ccc(C=O)cc1[N+](=O)[O-] | inactive
O=C(O)c1c2c(nc3ccccc13)Cc1ccccc1-2 | active
COc1cc(OC)c(Br)c(OC)c1 | inactive
CNC(=O)C(C)C1C(=O)/C(=C(O)/C=C/C(C)=C\C(C)C2OC3(C)OC(C=CC34CO4)C2C)C(=O)N1C1CCC(O)C(C)O1 (centres undefined) | inactive
CCOC(=O)C(C(=O)OCC)C1C=CCC1 (centres undefined) | inactive
CC1CC2C(CC1=O)C(C)(C)CCC2(C)C (centres undefined) | inactive
N#CCCN1c2ccccc2Sc2ccccc21 | inactive
CCOC(=O)c1c[nH]c(=S)n1C | inactive
O=Cc1cn[nH]c1-c1ccccc1 | inactive
Cc1ccc(S(=O)(=O)OCC2C3C=CC(C3)C2COS(=O)(=O)c2ccc(C)cc2)cc1 (centres undefined) | inactive
O=[N+]([O-])c1ccc(S(=O)c2ccc([N+](=O)[O-])cc2)cc1 | inactive
COc1ccc(/C=C2\CCC3C(CCCC34OCCO4)C2=O)cc1 (centres undefined) | inactive
COc1cc2cc3c4cc(OC)c(OC)cc4cc[n+]3c(CCC(=O)O)c2cc1OC (tested in a mixture with another compound) | inactive
CC(C)(C)c1cc(CO)cc(C(C)(C)C)c1O | inactive
CCCCCCCCCCCC(=O)N(C)C | inactive
Cc1ccc(S(=O)(=O)N2CC3CC2CN3Cc2ccccc2)cc1 (centres undefined) | inactive
C[C@]12CC[C@@H]3c4ccc(O)cc4CC[C@H]3[C@@H]1CCC(=O)O2 | inactive
